Read-out: CFLAR gene, CFLAR (gene 8837)
assay.comment: LTEA_HepaRG_CFLAR: Life Technologies and Expression Analysis (LTEA) Assay for CFLAR gene using HepaRG (AID 2283455)
protocol.conditions: mRNA level, 48 h; actives raise or lower the signal
The source made the active and inactive calls. Rule for the calls: active = hit-call score of the fitted dose curve at least 0.9, where 1 is the maximum; inactive = score below 0.9.
Tick one outcome: TRUE for active, FALSE for inactive

Example entries begin here.
{"compound": "Cn1cc(-c2ccccc2)c(=O)c(-c2cccc(C(F)(F)F)c2)c1", "class": "TRUE"}
{"compound": "OCCCl", "class": "FALSE"}
{"compound": "Nc1ccc(Oc2ccc(N)cc2)cc1", "class": "FALSE"}
{"compound": "OCCCBr", "class": "FALSE"}
{"compound": "Cc1ccc(N=C=O)cc1N=C=O", "class": "FALSE"}
{"compound": "CC(C)(OOC(C)(C)c1ccccc1)c1ccccc1", "class": "FALSE"}
{"compound": "[O-][Cl+]O", "class": "FALSE"}
{"compound": "O=C(O)C1C2CCC(O2)C1C(=O)O (configuration not stated)", "class": "FALSE"}
{"compound": "Cc1ccc(N)c(N)c1", "class": "FALSE"}
{"compound": "O=C(N[C@H](c1ccccc1)[C@@H]1CN2CCC1CC2)c1c(Cl)ccc(C(F)(F)F)c1Cl", "class": "TRUE"}

Request: Could you please tell me the result logged for `ClC1=C(Cl)[C@]2(Cl)[C@H]3[C@H]([C@@H]4C=C[C@H]3C4)[C@@]1(Cl)C2(Cl)Cl` in this assay?
Result: FALSE

Request: Could you please tell me the result logged for `COC(=O)c1ccccc1N` in this assay?
Result: FALSE

Request: Please share the test call associated with `Brc1ccc(Oc2ccccc2)cc1` .
Result: FALSE

Request: For `Clc1ccccc1Cl` , which call appears in the assay record?
Result: FALSE

Request: Outcome logged for `CCCCCCCCOC(=O)c1ccc(C(=O)OCCCCCCCC)c(C(=O)OCCCCCCCC)c1` in this assay:
Result: FALSE

Request: Please share the test call associated with `Oc1ccc2ccc3cccc4ccc1c2c34` .
Result: FALSE

Request: Give the logged outcome of this assay for the following compound: `c1ccc(NNc2ccccc2)cc1`
Result: FALSE

Request: Assay outcome for `O=C(Nc1ccccc1)c1ccccc1I` : what was it?
Result: FALSE

Request: Lab log entry: `CN(C)c1ccc(C(=O)c2ccc(N(C)C)cc2)cc1` — outcome as called in the assay?
Result: FALSE

Request: What did this assay record as the result for `c1ccc2c(c1)oc1ccccc12` ?
Result: FALSE

Request: Recorded test outcome, item `ClCCOCCCl`
Result: FALSE

Request: Could you kindly confirm the outcome this assay logged for `CCNS(=O)(=O)C(F)(F)C(F)(F)C(F)(F)C(F)(F)C(F)(F)C(F)(F)C(F)(F)C(F)(F)F` ?
Result: FALSE

Request: Kindly provide the recorded test outcome for the following compound: `Nc1ccc(N=Nc2ccccc2)cc1`
Result: TRUE

Request: Any idea what this test logged for `C=CCc1ccc2c(c1)OCO2` ?
Result: FALSE

Request: Answer briefly: the call reported for `O=C1CCCO1` in this assay.
Result: FALSE

Request: Entry CC(C)(C)C(O)(CCc1ccc(Cl)cc1)Cn1cncn1 (configuration not stated) : call = ?
Result: FALSE

Request: Could you kindly confirm the outcome this assay logged for `COP(=S)(OC)SCN1C(=O)c2ccccc2C1=O` ?
Result: FALSE

Request: What call does the record list for `Oc1ccccc1Cl` ?
Result: FALSE

Request: For `CC(C)(C)OOC(=O)c1ccccc1` , which call appears in the assay record?
Result: FALSE

Request: Status in this test for c1ccc(C2CO2)cc1 (configuration not stated) ?
Result: FALSE
